Entries and their measured melting point follow.
RESULT TYPE: melting point

COMPOUND	RESULT TYPE	OBS VALUE
COc1cc(C(O)C(C)C)cc2c1OC(C)(C)C2 (stereo not given)	melting point	113 to 116 °C
COc1cccc(CC(=O)O)c1OCCCc1cc(OC(C)C)nn1Cc1c(F)cccc1Cl	melting point	97 to 98 °C
N#CC1(C(C(=O)O)C(=O)O)CCCCC1	melting point	99.9 °C
Cc1cc(C)c(-n2c(C)cc(C)c(C#N)c2=O)cc1NS(=O)(=O)C(F)(F)F	melting point	274 to 276 °C
CC12CCC(C(=O)O)=CC1=CCC1C2CCC2(C)C(C(=O)N(C(=O)NC3CCCCC3)C3CCCCC3)CCC12 (stereo not given)	melting point	253 to 255 °C
O=C1CCCc2sc(CCN3CCC(c4coc5cc(F)ccc45)CC3)cc2N1	melting point	176 to 178 °C
O=CCOc1ccc(CCC(=O)O)cc1	melting point	95 to 100 °C
CCCCc1nnc(C(=O)N(C)Cc2ccccc2)n1Cc1ccc(-c2ccccc2-c2nnn[nH]2)cc1	melting point	> 95 °C
Cc1c(SCCCSCCn2c([N+](=O)[O-])cnc2C)ccnc1CNc1cnc2ccccc2c1	melting point	133 to 135 °C
CC1(CN2CCN(N=Cc3ccc(OC(F)(F)F)cc3)CC2)Cn2cc([N+](=O)[O-])nc2O1 (stereo not given)	melting point	189 to 191 °C

Data provenance is a melting point compilation (Tetko et al.; mined from patent text by program, amines drawn as free bases though some values may be those of a salt).
